Target: UniProt P49366
Sequence (P49366 whole entry): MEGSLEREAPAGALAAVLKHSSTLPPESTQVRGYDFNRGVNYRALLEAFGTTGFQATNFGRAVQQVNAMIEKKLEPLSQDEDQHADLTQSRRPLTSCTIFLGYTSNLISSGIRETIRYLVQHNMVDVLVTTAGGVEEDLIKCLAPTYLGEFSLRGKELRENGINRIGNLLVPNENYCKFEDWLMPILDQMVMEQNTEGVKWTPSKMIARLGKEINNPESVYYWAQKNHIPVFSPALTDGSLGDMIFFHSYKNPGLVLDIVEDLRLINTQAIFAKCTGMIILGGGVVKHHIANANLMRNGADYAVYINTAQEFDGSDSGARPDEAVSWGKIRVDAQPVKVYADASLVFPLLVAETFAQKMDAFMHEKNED
Assay: Effect on Hypusine formation in CHO cells at concentration 3 uM.
Format: functional, cell-based
Details: Cricetulus griseus
readoutType: Control (%)

Before answering, review these 2 worked examples.
>>> observedvalue("NCCCCCCCCNCCCCCCCCN=C(N)N")
36
>>> observedvalue("N=C(N)NCCCNCCCNC(=N)N")
98

[A] NCCCCCCNCCCCCCN=C(N)N
[B] NCCCCCCCNCCCCCCCN=C(N)N
[C] N=C(N)NCCCCCCNCCCCCCNC(=N)N
[D] NCCCCNCCCCN=C(N)N
[E] N=C(N)NCCCCCCCN
### Prompt Ranking field: Control; order: falling. Write the labels out in the order the request specifies.
### Response C, A, B, D, E

[P] CCNCCCCCCCN=C(N)N
[Q] NCCCNCCCN=C(N)N
### Prompt Parameter metric = Control. Return the lower-valued option from P and Q . Selection: enter the item's label.
### Response Q
(Q: 50%, P: 76%)
